- experimentalTarget: T1, biotinylated human IL-17A (Homo sapiens, UniProt Q16552, biotin (site not stated))
- T1 construct: human interleukin-17A; also called hIL-17A; biotinylated IL-17A
- T1 sequence (Q16552 24-155): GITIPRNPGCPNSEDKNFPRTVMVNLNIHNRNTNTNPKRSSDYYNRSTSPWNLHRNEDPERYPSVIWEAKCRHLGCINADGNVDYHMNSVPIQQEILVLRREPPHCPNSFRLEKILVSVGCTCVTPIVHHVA
- runDescription: flow cytometry on cells; scFv displayed on yeast EBY-100; incubated with soluble antigen (biotinylated human IL-17A in PBS 0.1% BSA, 1 h), labelled with anti-Myc-FITC (expression) and streptavidin-APC (binding)
- measurementConditions: one partner purified
measurementType: binding result

clone 11.4_C12 scFv displayed on yeast (scFv, V domains shown, as the VH of m1 (AAL160) with changes in CDR H3; three repeats of the G4S linker between VH and VL; as the VL of m1 (AAL160) with changes; has W30, Y93 and W94 (light-chain numbering); also called 114_R5_C12; source: yeast surface display, EBY-100, induced at 37 to 40 °C) VH: EVQLVQSGAEVKKPGESLKISCKGSGYSFTSYWIGWVRQMPGKGLEWMGIIYPSDSDTRYSPSFQGQVTISADKSISTAYLQWSSLKASDTAMYYCARYPNYGAFDIWGQGTMVTVSS VL: EIVLTQSPATLSLSPGERATLSCRASQSVWSYLAWYQQKPGQAPRLLIYDASNRATGIPARFSGSGSGTDFTLTISSLEPEDFAVYYCQQYFYWSWPFGQGTKLEIK	binds
clone 11.1_C3 scFv displayed on yeast (scFv, V domains shown, as the VH of m1 (AAL160) with changes in CDR H3; numbers count on the scFv; three repeats of the G4S linker between VH and VL; as the VL of m1 (AAL160) with changes in CDR L1 and L3; First-generation clone from library A_11.1; nine mutations against AAL160, eight in H3 and L3 and one in L1; source: yeast surface display, EBY-100, induced with galactose) VH: EVQLVQSGAEVKKPGESLKISCKGSGYSFTSYWIGWVRQMPGKGLEWMGIIYPSDSDTRYSPSFQGQVTISADKSISTAYLQWSSLKASDTAMYYCARYTNYGNFDIWGQGTMVTVSS VL: EIVLTQSPATLSLSPGERATLSCRASQSVWSYLAWYQQKPGQAPRLLIYDASNRATGIPARFSGSGSGTDFTLTISSLEPEDFAVYYCQQGFYWPWPFGQGTKLEIK	binds
